- target or system: hNET (Homo sapiens)
- Construct: expressed in transfected cells; host or cells: HEK-293
- assay details: hNET membrane radioligand binding assay (Assay 1)
- run parameters: 3H-nisoxetine, membranes from HEK-293 cells expressing hNET; read-out: NET pKi (converted)
readout: Ki

Cc1c(Cl)cccc1OCc1ccccc1N1CCNCC1 [Example 2-21]: ≤ 0.1 µM
CC(C)c1ccccc1OCc1ccccc1N1CCNCC1 [Example 2-5]: ≤ 10 µM
N#Cc1c(F)cccc1OCc1ccccc1N1CCNCC1 [Example 2-22]: ≤ 10 µM
COc1ccccc1OCc1ccccc1N1CCNCC1 [Example 2-7]: ≤ 10 µM
CCc1ccccc1OCc1ccccc1N1CCNCC1 [Example 2-6]: ≤ 10 µM

Ask: Reported Ki for hNET (Homo sapiens), given c1ccc(Cc2ccccc2OCc2ccccc2N2CCNCC2)cc1 [Example 2-9] ?
Reply: ≤ 10 µM

* * *

Item-by-item account of Ki
- target or system: hNET (Homo sapiens, UniProt P23975)
- Construct: expressed in transfected cells; host or cells: HEK-293
- Sequence (P23975 whole entry): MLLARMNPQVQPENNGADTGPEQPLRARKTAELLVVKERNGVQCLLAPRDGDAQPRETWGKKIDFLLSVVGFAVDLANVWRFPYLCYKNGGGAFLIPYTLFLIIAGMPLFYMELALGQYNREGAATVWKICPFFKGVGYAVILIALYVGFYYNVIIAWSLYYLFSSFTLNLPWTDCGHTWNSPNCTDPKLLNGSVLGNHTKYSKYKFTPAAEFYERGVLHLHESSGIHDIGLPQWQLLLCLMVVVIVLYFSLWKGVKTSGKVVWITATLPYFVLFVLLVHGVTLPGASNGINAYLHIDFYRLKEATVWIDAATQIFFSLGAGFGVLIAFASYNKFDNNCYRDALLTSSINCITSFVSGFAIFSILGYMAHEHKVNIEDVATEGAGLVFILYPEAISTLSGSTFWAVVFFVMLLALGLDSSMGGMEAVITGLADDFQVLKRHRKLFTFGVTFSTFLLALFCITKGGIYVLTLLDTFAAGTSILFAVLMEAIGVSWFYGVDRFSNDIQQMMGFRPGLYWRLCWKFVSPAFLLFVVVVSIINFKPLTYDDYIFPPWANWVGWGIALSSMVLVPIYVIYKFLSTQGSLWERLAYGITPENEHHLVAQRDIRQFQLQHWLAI
- assay details: hNET membrane radioligand binding assay (Assay 1)
- run parameters: 3H-nisoxetine, membranes from HEK-293 cells expressing hNET; read-out: NET pKi (converted)

N#Cc1ccc(Cl)cc1OCc1ccccc1N1CCNCC1 [Example 2-32]: ≤ 10 µM
Cc1ccc(Cl)cc1OCc1ccccc1N1CCNCC1 [Example 2-30]: ≤ 0.1 µM
Cc1ccccc1OCc1ccccc1N1CCNCC1 [Example 2-4]: ≤ 10 µM
CC(C)c1cccc(C(C)C)c1OCc1ccccc1N1CCNCC1 [Example 2-38]: ≤ 10 µM
Clc1ccc(Cl)c(OCc2ccccc2N2CCNCC2)c1 [Example 2-26]: ≤ 10 µM

Ask: Fill in: Ki of Cc1ccc(F)cc1OCc1ccccc1N1CCNCC1 [Example 2-29] is ___
Reply: ≤ 10 µM

Ask: Fill in: Ki of Fc1cc(OCc2ccccc2N2CCNCC2)ccc1Cl [Example 2-34] is ___
Reply: ≤ 0.1 µM

Ask: Fill in: Ki of COc1ccc(Cl)cc1OCc1ccccc1N1CCNCC1 [Example 2-31] is ___
Reply: ≤ 10 µM

Ask: Fill in: Ki of COc1cccc(OCc2ccccc2N2CCNCC2)c1 [Example 2-16] is ___
Reply: ≤ 10 µM

Ask: Fill in: Ki of Clc1cccc(OCc2ccccc2N2CCNCC2)c1Cl [Example 2-19] is ___
Reply: ≤ 10 µM

Ask: Fill in: Ki of Clc1cc(Cl)c(OCc2ccccc2N2CCNCC2)cc1Cl [Example 2-39] is ___
Reply: ≤ 0.1 µM

Ask: Fill in: Ki of Cc1ccc(OCc2ccccc2N2CCNCC2)cc1 [Example 2-17] is ___
Reply: ≤ 10 µM

* * *

- target or system: hNET (Homo sapiens, UniProt P23975)
- Construct: expressed in transfected cells; host or cells: HEK-293
- assay details: hNET membrane radioligand binding assay (Assay 1)
- run parameters: 3H-nisoxetine, membranes from HEK-293 cells expressing hNET; read-out: NET pKi (converted)
readout: Ki

Below, each entry is followed by its recorded Ki result.
Cc1cccc(OCc2ccccc2N2CCNCC2)c1: ≤ 10 µM
c1ccc(COc2ccccc2OCc2ccccc2N2CCNCC2)cc1: ≤ 10 µM
Fc1ccc(F)c(OCc2ccccc2N2CCNCC2)c1: ≤ 10 µM

Ask: Reported Ki for hNET (Homo sapiens, UniProt P23975), given `Fc1cc(F)cc(OCc2ccccc2N2CCNCC2)c1` ?
Reply: ≤ 10 µM

Ask: Reported Ki for hNET (Homo sapiens, UniProt P23975), given `Fc1ccc(OCc2ccccc2N2CCNCC2)cc1F` ?
Reply: ≤ 0.1 µM

* * *

- target or system: hNET (Homo sapiens)
- Construct: expressed in transfected cells; host or cells: HEK-293
- assay details: hNET membrane radioligand binding assay (Assay 1)
- run parameters: 3H-nisoxetine, membranes from HEK-293 cells expressing hNET; read-out: NET pKi (converted)
readout: Ki

Below, each entry is followed by its recorded Ki result.
Clc1cc(Cl)c(Cl)c(OCc2ccccc2N2CCNCC2)c1Cl [Example 2-40]: ≤ 10 µM
Ic1ccccc1OCc1ccccc1N1CCNCC1 [Example 2-3]: ≤ 0.1 µM

Ask: Fill in: Ki of Cc1c(F)cccc1OCc1ccccc1N1CCNCC1 [Example 2-20] is ___
Reply: ≤ 10 µM

Ask: Fill in: Ki of Clc1ccc(OCc2ccccc2N2CCNCC2)cc1Cl [Example 2-35] is ___
Reply: ≤ 0.1 µM

Ask: Fill in: Ki of CC(C)(C)c1cccc(OCc2ccccc2N2CCNCC2)c1 [Example 2-15] is ___
Reply: ≤ 10 µM

Ask: Fill in: Ki of Clc1ccccc1OCc1ccccc1N1CCNCC1 [Example 2-2] is ___
Reply: ≤ 10 µM

Ask: Fill in: Ki of Fc1ccc(Br)cc1OCc1ccccc1N1CCNCC1 [Example 2-25] is ___
Reply: ≤ 0.1 µM

Ask: Fill in: Ki of c1ccc(-c2ccccc2OCc2ccccc2N2CCNCC2)cc1 [Example 2-8] is ___
Reply: ≤ 10 µM

Ask: Fill in: Ki of Clc1cccc(OCc2ccccc2N2CCNCC2)c1 [Example 2-12] is ___
Reply: ≤ 0.1 µM

* * *

Item-by-item account of Ki
- target or system: hNET (Homo sapiens)
- Construct: expressed in transfected cells; host or cells: HEK-293
- assay details: hNET membrane radioligand binding assay (Assay 1)
- run parameters: 3H-nisoxetine, membranes from HEK-293 cells expressing hNET; read-out: NET pKi (converted)

Below, each entry is followed by its recorded Ki result.
Fc1ccc(Br)c(OCc2ccccc2N2CCNCC2)c1: ≤ 10 µM
c1ccc(Oc2ccccc2OCc2ccccc2N2CCNCC2)cc1: ≤ 0.1 µM
Fc1ccc(Cl)cc1OCc1ccccc1N1CCNCC1: ≤ 10 µM

Ask: Fill in: Ki of `Fc1c(Cl)cccc1OCc1ccccc1N1CCNCC1` is ___
Reply: ≤ 10 µM

Ask: Fill in: Ki of `Brc1cccc(OCc2ccccc2N2CCNCC2)c1` is ___
Reply: ≤ 0.1 µM
